- Procedure details: Half life in dog at 0.5 mg/kg, po by LC-MS/MS analysis
- Type: ADME, organism-based, Canis lupus familiaris
- Condition label: in vivo
Property: half-life (min)
Numbers only, in min.

stdin: Find the recorded half-life belonging to `Cn1c(=O)n(CC(=O)N2CCC2)c2cc(-c3ccc(C(F)(F)F)s3)cnc21` and report it.
stdout: 42

###

- Procedure details: Volume of distribution at steady state in Sprague-Dawley rat at 0.5 mg/kg, iv or 2.5 mg/kg, po using 20% HP-beta-CD formulation by LC-MS/MS analysis
- Format: ADME, organism-based
- Condition label: in vivo, read-out: Vdss
Property: Vd (L/kg)
One number for each entry, in L/kg.

stdin: Fill in the blank: the reported Vd of `Cc1ccc(-c2cnc3c(c2)n(CC(=O)N2CCC2)c(=O)n3C)s1` is ____.
stdout: 1.1

###

- Procedure details: Oral bioavailability in Sprague-Dawley rat at 0.5 mg/kg by LC-MS/MS analysis
- Assay type: ADME, organism-based
- Condition label: in vivo
Property: bioavailability (%)
Numbers only, in %.

stdin: Consider the compound shown here: `CN(C)C(=O)Cn1c(=O)n(C)c2ncc(-c3ccc(C(F)(F)F)s3)cc21` What is its recorded bioavailability?
stdout: 121

###

- Procedure details: Half life in monkey at 0.5 mg/kg, po by LC-MS/MS analysis
- Format: ADME, organism-based, Macaca mulatta
- Condition label: rhesus monkey, in vivo
Property: half-life (h)
Answers are plain numbers, in h.

stdin: I have this molecule here, `Cn1c(=O)n(CC(=O)N2CCC2)c2cc(-c3ccc(C(F)(F)F)s3)cnc21` , and I need its recorded half-life.
stdout: 1

###

- Procedure details: Metabolic stability in human liver microsomes assessed as extraction ratio at 1 uM after 5 to 60 mins in presence of NADPH by LC-MS/MS analysis
- Type: ADME, Microsome
- Condition label: time 5-60 min, read-out: ERH
Property: hepatic extraction ratio at 1 µM
Numbers only.

Example entries and their recorded answers appear below.
- Chem smiles: "CN(C)C(=O)Cn1c(=O)n(C)c2ncc(-c3cccc(C(F)(F)F)c3)cc21"
  hepatic extraction ratio at 1 µM: 0.38
- Chem smiles: "Cn1c(=O)n(CC(=O)N2CCC2)c2cc(-c3ccc(C(F)F)s3)cnc21"
  hepatic extraction ratio at 1 µM: 0.46
- Chem smiles: "Cc1csc(-c2cnc3c(c2)n(CC(=O)N(C)C)c(=O)n3C)c1"
  hepatic extraction ratio at 1 µM: 0.59

Now let's try a different one.
stdin: Given `Cc1ccc(-c2cnc3c(c2)n(CC(=O)N2CCC2)c(=O)n3C)s1` , state its recorded hepatic extraction ratio at 1 µM.
stdout: 0.56

###

- Procedure details: Volume of distribution at steady state in Sprague-Dawley rat at 0.1 mg/kg, iv or 0.5 mg/kg, po by LC-MS/MS analysis
- Assay type: ADME, organism-based
- Condition label: in vivo, read-out: Vdss
Property: Vd (L/kg)
One number for each entry, in L/kg.

stdin: Consider the compound shown here: `CN(C)C(=O)Cn1c(=O)n(C)c2ncc(-c3ccc(C(F)(F)F)s3)cc21` What is its recorded Vd?
stdout: 1.2

###

- Procedure details: AUC (infinity) in Sprague-Dawley rat at 2.5 mg/kg, po by LC-MS/MS analysis
- Type: ADME, organism-based
- Design: time infinity, route oral, dose 2.5 mg/kg
- Condition label: in vivo
Property: AUC(0-inf)

stdin: Suppose we examine the compound `Cn1c(=O)n(CC(=O)N2CCC2)c2cc(-c3ccc(C(F)(F)F)s3)cnc21` ; what AUC(0-inf) value has been reported?
stdout: 1830 ng·h/mL

###

- Procedure details: Volume of distribution at steady state in dog at 0.1 mg/kg, iv by LC-MS/MS analysis
- Assay type: ADME, organism-based, Canis lupus familiaris
- Condition label: in vivo, read-out: Vdss
Property: Vd (L/kg)
Answers are plain numbers, in L/kg.

stdin: Consider the molecule `Cn1c(=O)n(CC(=O)N2CCC2)c2cc(-c3ccc(C(F)(F)F)s3)cnc21` and give its measured Vd.
stdout: 0.8

###

- Procedure details: Clearance in Sprague-Dawley rat at 0.5 mg/kg, iv using 20% HP-beta-CD formulation by LC-MS/MS analysis
- Type: ADME, organism-based
- Condition label: in vivo
Property: clearance (mL/min/kg)
Numbers only, in mL/min/kg.

stdin: Look up clearance: `Cc1ccc(-c2cnc3c(c2)n(CC(=O)N2CCC2)c(=O)n3C)s1`
stdout: 114

###

- Procedure details: Cmax in Sprague-Dawley rat at 250 mg/kg, po administered via gavage after 24 hrs using nanosuspension formulation by LC-MS/MS analysis
- Format: ADME, organism-based
- Design: route oral, time 24 hrs, dose 250 mg/kg
- Condition label: in vivo
Property: Cmax (ng/mL)
One number for each entry, in ng/mL.

stdin: Field request: Cmax | item: `Cn1c(=O)n(CC(=O)N2CCC2)c2cc(-c3ccc(C(F)(F)F)s3)cnc21`
stdout: 12500

###

- Procedure details: Tmax in Sprague-Dawley rat at 100 mg/kg, po administered via gavage after 24 hrs using nanosuspension formulation by LC-MS/MS analysis
- Type: ADME, organism-based
- Condition label: in vivo
Property: Tmax (h)
Numbers only, in h.

stdin: Recorded Tmax for `Cn1c(=O)n(CC(=O)N2CCC2)c2cc(-c3ccc(C(F)(F)F)s3)cnc21` , please?
stdout: 2.7

###

- Procedure details: Tmax in Sprague-Dawley rat at 0.5 mg/kg, iv or 2.5 mg/kg, po using 30% SBE-beta-CD formulation by LC-MS/MS analysis
- Type: ADME, organism-based
- Condition label: in vivo
Property: Tmax (h)
Give bare numbers, in h.

stdin: Need Tmax, item `Cn1c(=O)n(CC(=O)N2CC(F)C2)c2cc(-c3ccc(C(F)(F)F)s3)cnc21`
stdout: 1

###

- Procedure details: Solubility of compound in phosphate buffer at pH 7 measured after 3 days
- Type: physicochemical
- Condition label: time 3 day
For each entry below, report its solubility at 72 h value.

- Chem smiles: "Cc1ccc(-c2cnc3c(c2)n(CC(=O)N2CCC2)c(=O)n3C)s1"
  solubility at 72 h: "48 µM"

List reported solubility at 72 h for each of these compounds:
1. Cc1csc(-c2cnc3c(c2)n(CC(=O)N(C)C)c(=O)n3C)c1
2. Cn1c(=O)n(CC(=O)N2CCC2)c2cc(-c3cccc(C(F)(F)F)c3)cnc21
3. Cn1c(=O)n(CC(=O)N2CC(F)C2)c2cc(-c3cccc(C(F)(F)F)c3)cnc21
4. Cn1c(=O)n(CC(=O)N2CC(F)C2)c2cc(-c3ccc(C(F)(F)F)s3)cnc21
5. CN(C)C(=O)Cn1c(=O)n(C)c2ncc(-c3ccc(C(F)(F)F)s3)cc21
6. O=C(Cn1c(=O)[nH]c2ncc(-c3cccc(C(F)(F)F)c3)cc21)NC1CC1
7. CN(C)C(=O)Cn1c(=O)n(C)c2ncc(-c3cccc(C(F)(F)F)c3)cc21
8. Cn1c(=O)n(CC(=O)N2CCC2)c2cc(-c3ccc(C(F)(F)F)s3)cnc21

stdout:
["25 µM", "23 µM", "16 µM", "< 4 µM", "< 4 µM", "< 4 µM", "6 µM", "< 4 µM"]

###

- Procedure details: Intrinsic clearance in cynomolgus monkey liver microsomes at 1 uM after 5 to 60 mins in presence of NADPH by LC-MS/MS analysis
- Assay type: ADME, Macaca fascicularis, Microsome
- Condition label: time 5-60 min, read-out: CLH
Property: microsomal CLint at 1 µM (µL/min/mg)
One number for each entry, in µL/min/mg.

stdin: Look at this compound and give its reported microsomal CLint at 1 µM. `Cn1c(=O)n(CC(=O)N2CCC2)c2cc(-c3ccc(C(F)(F)F)s3)cnc21`
stdout: 16.6

###

- Procedure details: Metabolic stability in rat liver microsomes assessed as extraction ratio at 1 uM after 5 to 60 mins in presence of NADPH by LC-MS/MS analysis
- Type: ADME, Microsome
- Condition label: time 5-60 min, read-out: ERH
Property: hepatic extraction ratio at 1 µM

- Chem smiles: "Cn1c(=O)n(CC(=O)N2CC(F)C2)c2cc(-c3cccc(C(F)(F)F)c3)cnc21"
  hepatic extraction ratio at 1 µM: "< 0.2"
- Chem smiles: "Cn1c(=O)n(CC(=O)N2CCC2)c2cc(-c3ccc(C(F)(F)F)s3)cnc21"
  hepatic extraction ratio at 1 µM: "< 0.17"
- Chem smiles: "Cn1c(=O)n(CC(=O)N2CCC2)c2cc(-c3cccc(C(F)(F)F)c3)cnc21"
  hepatic extraction ratio at 1 µM: "< 0.2"

// switching to the query compound
stdin: For the compound `CN(C)C(=O)Cn1c(=O)n(C)c2ncc(-c3ccc(C(F)(F)F)s3)cc21` , what hepatic extraction ratio at 1 µM is on record?
stdout: < 0.17

Numbers sourced from ChEMBL document CHEMBL4725355.
